Tested on: MALME-3M melanoma
Assay: NCI tumour cell line growth inhibition, 48 h
reported_property: TGI

>  <compound>
O=C(CCN1CCCN(c2cnc3ccccc3n2)CC1)c1csc2ccccc12

>  <observed>
32.1 µM

$$$$
>  <compound>
N#Cc1cccc(C2C(=O)c3ccc(C(=O)c4ccc5c(c4)C(=O)N(c4ccc(Oc6ccc(N7C(=O)c8ccc(C(=O)c9ccc%10c(c9)C(=O)N(c9cccc(C#N)c9)C%10=O)cc8C7=O)cc6)cc4)C5=O)cc3C2=O)c1 (stereo not given)

>  <observed>
> 100 µM

$$$$
>  <compound>
CC(N)C(C)c1ccccc1 (stereo not given)

>  <observed>
> 100 µM

$$$$
>  <compound>
C=CCOCn1cnc2c(=O)[nH]c(N)nc21

>  <observed>
> 100 µM

$$$$
>  <compound>
Cn1c(=O)c(Oc2ccc(F)cc2F)cc2cnc(NCC(C)(C)O)nc21

>  <observed>
> 25 µM

$$$$
>  <compound>
Cc1[nH]nc(C(=O)N/N=C/c2ccccc2Cl)c1N=NN(C)C

>  <observed>
> 100 µM

$$$$
>  <compound>
Clc1ccccc1C1SCc2nc3ccccc3n21 (stereo not given)

>  <observed>
53.4 µM

$$$$
>  <compound>
Cc1c(C#N)c2nc3ccccc3n2c(=O)/c1=C/Nc1ccc(Cl)cc1

>  <observed>
> 100 µM

$$$$
>  <compound>
COc1ccc(/C=C/C(=O)/C=C(O)/C=C/c2ccc(OC)c(OC)c2)cc1OC

>  <observed>
> 100 µM

$$$$
>  <compound>
C[C@]12CCc3nn(-c4ccccc4)nc3C1CC[C@@H]1C2CC[C@]2(C)C(=O)CCC12 (stereo not given in full)

>  <observed>
> 100 µM

$$$$
>  <compound>
COc1cc(C)[nH]c(=O)c1CNC(=O)c1c(C)n([C@H](C)C2CCN(CC(F)(F)F)CC2)c2ccccc12

>  <observed>
> 100 µM

$$$$
>  <compound>
Fc1ccc(N=C2C=CC(=Nc3ccc(F)cc3)c3ccccc32)cc1

>  <observed>
> 100 µM

$$$$
>  <compound>
COc1cc(C(=O)NN=C2c3ccccc3-c3ccccc32)cc(OC)c1OC

>  <observed>
16.7 µM

$$$$
>  <compound>
O=C(/C=C/c1cccc(Br)c1)N1CCN(CCOC(c2ccccc2)c2ccccc2)CC1

>  <observed>
> 100 µM

$$$$
>  <compound>
Cn1cnc(C(=N)[Se])c1N

>  <observed>
8.89 µM

$$$$
>  <compound>
C/C(CCN(C)C)=N\OC(=O)c1ccccc1

>  <observed>
> 100 µM

$$$$
>  <compound>
CC[C@@H](C)/C=C(C)/C=C/C(=O)c1c(O)c(-c2ccc(O)cc2)cn(OC2CC(=O)CCC(C)OC(=O)CC2O)c1=O (stereo not given in full)

>  <observed>
6.8 µM

$$$$
>  <compound>
O=C(O)c1ccc(Nc2cnc3cc(C(F)(F)F)ccc3n2)cc1

>  <observed>
> 100 µM

$$$$
>  <compound>
O=C1CN(c2ccccc2)C(=O)CN1NCNN1CC(=O)N(c2ccccc2)CC1=O

>  <observed>
> 100 µM

$$$$
>  <compound>
CC(C)[Si](Oc1ccc(CC2N(C(=O)c3ccc([N+](=O)[O-])cc3)C(CCc3ccccc3)CC2(C)C=O)cc1)(C(C)C)C(C)C (stereo not given)

>  <observed>
> 100 µM

$$$$
